assay: Cytotoxicity against human SH-SY5Y cells assessed as cell viability at 0.1 uM measured after 24 hrs by calcein-AM staining based fluorescence analysis; conditions: read-out: Activity
The following molecules are shown together with reported viability at 24 h, 0.1 µM values.

molecule | readingUnit | viability at 24 h, 0.1 µM
CC(=O)OC[C@H]1O[C@@H](n2cc(CO)nn2)[C@H](OC(C)=O)[C@@H](OC(C)=O)[C@H]1OC(C)=O | % | 109
CC1(C)CC[C@]23CC[C@]4(C)[C@H](CC[C@@H]5[C@@]6(C)CC(C#N)=C(O)C(C)(C)[C@@H]6CC[C@]54C)[C@H]2[C@H]1OC3 | % | 93.1
C=C(C(=O)OCc1c[nH]nn1)[C@@H]1CC[C@]2(COC(C)=O)CC[C@]3(C)[C@H](CC[C@@H]4[C@@]5(C)CC[C@H](OC(C)=O)C(C)(C)[C@@H]5CC[C@]43C)[C@@H]12 | % | 97.4
COC(=O)[C@]12CCC(C)(C)C[C@@H]1[C@H]1C=C[C@@H]3[C@@]4(C)CC(SC#N)C(=O)C(C)(C)[C@@H]4CC[C@@]3(C)[C@]1(C)CC2 (some centres not stated) | % | 100
C=C(C(=O)OCc1cn([C@@H]2O[C@H](COC(C)=O)[C@@H](OC(C)=O)[C@H](OC(C)=O)[C@H]2OC(C)=O)nn1)[C@@H]1CC[C@]2(COC(C)=O)CC[C@]3(C)[C@H](CC[C@@H]4[C@@]5(C)CC[C@H](OC(C)=O)C(C)(C)[C@@H]5CC[C@]43C)[C@@H]12 | % | 115
C=C(C(=O)OCc1cn([C@@H]2O[C@H](COC(C)=O)[C@H](OC(C)=O)[C@H](OC(C)=O)[C@H]2OC(C)=O)nn1)[C@@H]1CC[C@]2(COC(C)=O)CC[C@]3(C)[C@H](CC[C@@H]4[C@@]5(C)CC[C@H](OC(C)=O)C(C)(C)[C@@H]5CC[C@]43C)[C@@H]12 | % | 140
C=C(C)[C@@H]1CC[C@]2(C(=O)O)CC[C@]3(C)[C@H](C=C[C@@H]4[C@@]5(C)Cc6sc(N7CCOCC7)nc6C(C)(C)[C@@H]5CC[C@]43C)[C@@H]12 | % | 91.3
